test system: RARa homodimer (NR concentration 270 nM); experiment: PBM binding z-score (relative to random genomic background probes); higher = stronger binding; sequences stand for … in GC…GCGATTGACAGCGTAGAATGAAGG
Property measured: PBM binding z-score
Simply state the number, no unit and no words.

Some solved entries appear below for comparison.
The recorded PBM binding z-score for CGTCCAGGGTCAGCAGGTCAGTGAAAGCGACGTG is 0.53

The recorded PBM binding z-score for CCTAGTTTGTCAGGAGGTCACACACCGGATATGA is 2.79

The recorded PBM binding z-score for ACTAGCAGGCCAAGTTTGGGTCACTCGAACAAAG is -0.754

The recorded PBM binding z-score for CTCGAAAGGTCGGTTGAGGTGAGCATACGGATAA is 0.0392

The recorded PBM binding z-score for CTACCAAGGTGAACAAGGTTGTTGATTACTATTC is 0.287

Next:
The recorded PBM binding z-score for TAGCCTAGGTCAGATCTGGCCAGTATACGCTATA is -1.06

* * *

test system: PPARg:RXRa IVT, anti-PPARg (NR concentration 270 nM, RXRa partner concentration 90 nM); assay: PBM binding z-score (relative to random genomic background probes); higher = stronger binding; sequences stand for … in GC…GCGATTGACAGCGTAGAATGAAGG
Decide by PBM binding z-score: equal to or exceeding 2 means rule met, less means rule not met.

Illustrative cases are given below, each with its answer.
### Prompt Please tell me: is the sequence AGTCAAAGTTCACCTAGGTAACGTAAGATATGCT at or over 2 in terms of PBM binding z-score?
### Response rule met

### Prompt Please tell me: is the sequence GCAGACGGGTGAAACGCAGGTAACTCAGGGTGGC at or over 2 in terms of PBM binding z-score?
### Response rule not met

### Prompt Please tell me: is the sequence GCTGCTAGGTCAACTGGTGGTCAGCTAAAGCTCG at or over 2 in terms of PBM binding z-score?
### Response rule met

### Prompt Please tell me: is the sequence CAAACTAGGTCACCGGTAGGTCAAAGTCCGCATG at or over 2 in terms of PBM binding z-score?
### Response rule met

### Prompt Please tell me: is the sequence TCATATAGGTAAACGGGTGAAAGTCCGTAAGTTA at or over 2 in terms of PBM binding z-score?
### Response rule met

### Prompt Please tell me: is the sequence CCGATTAGTTGACCATAAGGGCAACCGAAGCTCG at or over 2 in terms of PBM binding z-score?
### Response rule not met

### Prompt Please tell me: is the sequence TCGAGTAGGGTAGGGGCATTCAGAATGGCGTCGA at or over 2 in terms of PBM binding z-score?
### Response rule not met

### Prompt Please tell me: is the sequence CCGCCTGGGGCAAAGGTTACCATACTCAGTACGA at or over 2 in terms of PBM binding z-score?
### Response rule met

Next:
### Prompt Please tell me: is the sequence ATCGAAAGGTCGACGATGTGAGTATACACCGTTT at or over 2 in terms of PBM binding z-score?
### Response rule not met

### Prompt Please tell me: is the sequence GTACCAAGGTGAATAGGTCATTGATGAGTAGGCG at or over 2 in terms of PBM binding z-score?
### Response rule met

### Prompt Please tell me: is the sequence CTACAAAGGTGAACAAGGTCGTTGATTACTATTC at or over 2 in terms of PBM binding z-score?
### Response rule met

### Prompt Please tell me: is the sequence ACAGACAGGTGATGAAGGTAACTCACGCTATCAT at or over 2 in terms of PBM binding z-score?
### Response rule not met

### Prompt Please tell me: is the sequence AGAATGAGGTTACCGAAGATCAGGGAAACGCTTG at or over 2 in terms of PBM binding z-score?
### Response rule met

* * *

tested on: PXR homodimer (NR concentration 270 nM); test: PBM binding z-score (relative to random genomic background probes); higher = stronger binding; sequences stand for … in GC…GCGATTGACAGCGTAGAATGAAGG
Please assign a class to every record based on measured PBM binding z-score, with ranges low bin: < 0.4; mid bin: ≥ 0.4 and < 1; high bin: ≥ 1

### Prompt Pick a category. Item: CGTCGAAGGTCAAGGTCAGTGAAAGAGACTCGAA
### Response mid bin

### Prompt Pick a category. Item: ATCTCTGGGTAAAGTTCAGTGAAAGATCGATAGA
### Response high bin

### Prompt Pick a category. Item: GCTATTAGTTGCAAGGGCAACCGAATGATTCTCG
### Response low bin

### Prompt Pick a category. Item: ACAGACAGGTGAGTGAAGGTAACCCAGCTGGACG
### Response low bin

### Prompt Pick a category. Item: ATCTCTAGGTAACCAAGTTCGGTGAATGCCGAAC
### Response mid bin

### Prompt Pick a category. Item: AGTATTAGTTGACTTAGGGCAACCGATACGACGC
### Response mid bin

### Prompt Pick a category. Item: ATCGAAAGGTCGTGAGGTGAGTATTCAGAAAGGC
### Response low bin

### Prompt Pick a category. Item: AGTCAAAGTTCAGGACGAGGTAACGTATAGCACG
### Response high bin

Next:
### Prompt Pick a category. Item: CCTGCTGGGCCACGAAAGGTCATTGATTCAGTGA
### Response high bin

### Prompt Pick a category. Item: GCTAGTTGGTCATTAAAAGGTCACACACCGGTCG
### Response high bin

### Prompt Pick a category. Item: GCTATTAGTTGAAATGGCAACCGAATGATTCTCG
### Response low bin

### Prompt Pick a category. Item: CCTACTGGGCCCAAGGTCATTGATTCCAATGCTC
### Response high bin

* * *

system: PPARg:RXRa 30nM:10nM, anti-RXR (NR concentration 30 nM, RXRa partner concentration 10 nM); assay: PBM binding z-score (relative to random genomic background probes); higher = stronger binding; sequences stand for … in GC…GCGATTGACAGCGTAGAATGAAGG
Property measured: PBM binding z-score

The recorded PBM binding z-score for ACTTACGGTTCAACGAGGTTATAGCACGCGTATA is 0.521

The recorded PBM binding z-score for CAGCCTAGGACAGGGCCAGTATAGGAGGAACGTT is -0.216

The recorded PBM binding z-score for CGTGCAAGGTCAAGGTCAGTGAAAGAGACTCGAA is 2.87

The recorded PBM binding z-score for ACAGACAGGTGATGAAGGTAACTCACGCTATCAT is 0.232

The recorded PBM binding z-score for ATATGTAGGTTATCGGGTCATTCTGTTTGCGCAT is 3.52

The recorded PBM binding z-score for GCGACTAGGGCAAAGCAGGTTACCATAAGGTTGG is -0.187

Next:
The recorded PBM binding z-score for CCTAGTTGGTCAAGGTCACACACGCTATAGGTAC is 1.66

The recorded PBM binding z-score for GCTAGTTGGTCTGTAAAAGGTCACACACCGGTCG is 2.19

The recorded PBM binding z-score for GGAACGAGGGCATTCGAGTCGATAGCATGGCGAT is -0.192

The recorded PBM binding z-score for AGAATGAGGGTATTAAGATCAGGGAATTGCGGTC is 0.322

The recorded PBM binding z-score for CGTCCAAGGTCAGCAGGTCGGTGAAAGCGACGTG is 0.508

The recorded PBM binding z-score for CGTCCAAGGTCATAGGAGATCAGTGAAGACAGAT is 2.45

* * *

Recorded PBM binding z-score values for a group of sequences are listed next.
tested on: PPARg homodimer (NR concentration 180 nM); experiment: PBM binding z-score (relative to random genomic background probes); higher = stronger binding; sequences stand for … in GC…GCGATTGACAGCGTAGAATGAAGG

Some solved entries appear below for comparison.
The recorded PBM binding z-score for GGAACGAGGGCATTCGAGTTGAGAGCATGGCGAT is -0.126

The recorded PBM binding z-score for TAGCGTAGGTCATTCAGGGGCCAGTATAGAAAGC is 2.48

The recorded PBM binding z-score for AGAACGAGAGCACGCTGAGTTGATAGCAGAGTAG is -0.952

Next:
The recorded PBM binding z-score for TCATATAGGTAAAAGGTGAAAGGCGGTGTGGTAA is 2.76

The recorded PBM binding z-score for ACTATTAGTTGAGACGAGGGCAACCAATAGGTTG is 0.0729

The recorded PBM binding z-score for AGAACGAGGGCACGCTGAGTTGATACCAGAGTAG is 0.189

The recorded PBM binding z-score for CGAACTAGGTCATTGACAGGACAGCGAATAGTAA is 1.57

The recorded PBM binding z-score for ATAGAAAGGTCGTGAGGTGAGTATACAGAAAGGC is 2
